The following compounds are shown together with reported Therapeutic ratio values.
- Experimental Protocol: Therapeutic ratio comparing nephrotoxic potential versus bone antiresorptive potency (reciprocal of ED50 (TPTX assay) / the total urinary malate dehydrogenase excretion)
- Format: ADME, tissue-based, Urine
Field format: numeric only.

Cc1cnc(NC(P(=O)(O)O)P(=O)(O)O)s1    4.5
CN(CCc1ccccc1)CCC(O)(P(=O)(O)O)P(=O)(O)O    19
CN(CCCOc1ccccc1)CCC(O)(P(=O)(O)O)P(=O)(O)O    84

Okay, next one:
Ask: If you can, please state the reported Therapeutic ratio value of CN(CCCc1ccccc1)CCC(O)(P(=O)(O)O)P(=O)(O)O .
Reply: 120

* * *

- Tested on: Rattus norvegicus
- Experimental Protocol: Effective dose after subcutaneous administration to TPTX rats for 50% reduction of hypercalcemia
- Type: functional
- Condition Info: sc
Please use met for ED50 under 0.002 mg/kg and not met for everything else, ties included.

Solved cases (2 shown):
Cc1cccc(OCCCN(C)CCC(O)(P(=O)(O)O)P(=O)(O)O)c1    met
CC(C)c1cnc(NC(P(=O)(O)O)P(=O)(O)O)s1    not met

Ask: # TODO verify ED50 < 0.002 mg/kg strictly for this molecule: Cc1ncn(CC(O)(P(=O)(O)O)P(=O)(O)O)c1C
Reply: met

Ask: # TODO verify ED50 < 0.002 mg/kg strictly for this molecule: CN(CCCOc1ccc(F)cc1)CCC(O)(P(=O)(O)O)P(=O)(O)O
Reply: met

Ask: # TODO verify ED50 < 0.002 mg/kg strictly for this molecule: Cc1[nH]cnc1CC(O)(P(=O)(O)O)P(=O)(O)O
Reply: met

Ask: # TODO verify ED50 < 0.002 mg/kg strictly for this molecule: O=P(O)(O)C(O)(CCc1c[nH]cn1)P(=O)(O)O
Reply: not met

Ask: # TODO verify ED50 < 0.002 mg/kg strictly for this molecule: CP(=O)(O)C(Nc1nccs1)P(C)(=O)O (stereo not given)
Reply: not met

* * *

- System: Rattus norvegicus
- Experimental Protocol: Effective dose after subcutaneous administration to TPTX rats for 50% reduction of hypercalcemia
- Format: functional
- Condition Info: sc
Use ED50 to assign classes; range list: low value: < 0.005 mg/kg; medium value: ≥ 0.005 mg/kg and < 0.03 mg/kg; high value: ≥ 0.03 mg/kg

Solved cases (5 shown):
O=P(O)(O)C(O)(CCNCCCOc1ccccc1)P(=O)(O)O    low value
CC(CCc1ccccc1)NCCC(O)(P(=O)(O)O)P(=O)(O)O (stereo not given)    high value
CCCc1cnc(NC(P(=O)(O)O)P(=O)(O)O)s1    low value
CCCN(CCCOc1ccccc1)CCC(O)(P(=O)(O)O)P(=O)(O)O    medium value
NCCCCCC(O)(P(=O)(O)O)P(=O)(O)O    high value

Ask: Which band does O=P(O)(O)C(N1CCCCC1)P(=O)(O)O fall in?
Reply: high value

Ask: Which band does CN(CCCSc1ccccc1)CCC(O)(P(=O)(O)O)P(=O)(O)O fall in?
Reply: low value

Ask: Which band does O=P(O)(O)C(Nc1nc2ccccc2[nH]1)P(=O)(O)O fall in?
Reply: high value

Ask: Which band does CCCCCN(C)C(C)CC(O)(P(=O)(O)O)P(=O)(O)O (stereo not given) fall in?
Reply: high value

Ask: Which band does O=P(O)(O)C(O)(CCN1CCCCCC1)P(=O)(O)O fall in?
Reply: medium value

Ask: Which band does CCCN(C)CCC(O)(P(=O)(O)O)P(=O)(O)O fall in?
Reply: low value
